- assay_system: DRB5*0101 (Homo sapiens, UniProt P01903+Q30154)
- Construct: made in house; host or cells: EBV-transformed homozygous human B cell lines, transfected fibroblasts or single-allele 721.221 transfectants
- protocol_details: biochemical
- Assay type: binding
pIC50: −log10 of the molar value.
Record fulfilled whenever pIC50 is at 7 or higher; record not fulfilled when lower.

The examples below pair each entry with its known result.
# molecule, assay_system, discrete_label
measured = [
    ("CSCC[C@H](NC(=O)[C@H](CO)NC(=O)[C@H](CCCCN)NC(=O)[C@H](C)N)C(=O)N[C@@H](CCC(=O)O)C(=O)N[C@@H](Cc1ccc(O)cc1)C(=O)N[C@@H](CC(=O)O)C(=O)N[C@@H](C)C(=O)N[C@H](C(=O)N[C@@H](C)C(=O)N[C@H](C(=O)N[C@H](C(=O)N[C@@H](Cc1c[nH]cn1)C(=O)N[C@@H](CO)C(=O)N[C@@H](Cc1c[nH]c2ccccc12)C(=O)O)[C@@H](C)O)[C@@H](C)O)C(C)C [Flu.PB1.655]", "DRB5*0101 (Homo sapiens, UniProt P01903+Q30154)", "not fulfilled"),
    ("CC[C@H](C)[C@H](NC(=O)[C@H](CC(C)C)NC(=O)[C@H](Cc1ccccc1)NC(=O)CNC(=O)[C@H](CCCNC(=N)N)NC(=O)[C@H](CC(C)C)NC(=O)[C@@H](NC(=O)[C@H](C)NC(=O)[C@H](CO)NC(=O)[C@@H](N)CCC(=O)O)C(C)C)C(=O)N[C@@H](CC(C)C)C(=O)NCC(=O)N[C@@H](CCCCN)C(=O)N[C@@H](CCC(=O)O)C(=O)N[C@@H](CC(=O)O)C(=O)O [Flu.PB2.690]", "DRB5*0101 (Homo sapiens, UniProt P01903+Q30154)", "not fulfilled"),
    ("CC[C@H](C)[C@H](NC(=O)[C@H](CCSC)NC(=O)[C@H](CO)NC(=O)[C@@H](N)CCC(=O)O)C(=O)N[C@@H](CCC(=O)O)C(=O)N[C@@H](C)C(=O)N[C@@H](CCC(=O)O)C(=O)N[C@@H](CO)C(=O)N[C@@H](CO)C(=O)N[C@H](C(=O)N[C@@H](CCCCN)C(=O)N[C@@H](CCC(=O)O)C(=O)N[C@@H](CCCCN)C(=O)N[C@@H](CC(=O)O)C(=O)N[C@@H](CCSC)C(=O)O)C(C)C [Flu.PA.596]", "DRB5*0101 (Homo sapiens, UniProt P01903+Q30154)", "not fulfilled"),
    ("CC[C@H](C)[C@H](NC(=O)[C@H](CC(C)C)NC(=O)[C@@H](NC(=O)[C@@H](N)CC(N)=O)C(C)C)C(=O)NCC(=O)N[C@@H](CCC(N)=O)C(=O)NCC(=O)N[C@@H](CC(=O)O)C(=O)N[C@H](C(=O)N[C@H](C(=O)N[C@@H](CC(C)C)C(=O)N[C@H](C(=O)N[C@@H](CCSC)C(=O)N[C@@H](CCCCN)C(=O)N[C@@H](CCCNC(=N)N)C(=O)O)C(C)C)C(C)C)C(C)C [Flu.PB2.726]", "DRB5*0101 (Homo sapiens, UniProt P01903+Q30154)", "not fulfilled"),
    ("CC[C@H](C)[C@H](NC(=O)[C@H](CCC(=O)O)NC(=O)[C@H](Cc1ccccc1)NC(=O)[C@@H](N)CCCNC(=N)N)C(=O)N[C@H](C(=O)NCC(=O)N[C@H](C(=O)N[C@@H](CCSC)C(=O)N[C@@H](CCCNC(=N)N)C(=O)N[C@@H](CCCNC(=N)N)C(=O)N[C@@H](CC(C)C)C(=O)N[C@@H](C)C(=O)N[C@@H](CC(=O)O)C(=O)N[C@@H](CCC(N)=O)C(=O)N[C@@H](CO)C(=O)O)[C@@H](C)O)[C@@H](C)O [Flu.PA.207]", "DRB5*0101 (Homo sapiens, UniProt P01903+Q30154)", "fulfilled"),
]

Input: Reported pIC50 at or above 7? CC[C@H](C)[C@H](NC(=O)[C@@H](NC(=O)[C@H](CCCNC(=N)N)NC(=O)[C@H](CCC(N)=O)NC(=O)[C@@H](NC(=O)[C@@H](NC(=O)[C@H](CCSC)NC(=O)[C@H](CCCCN)NC(=O)[C@H](CCCCN)NC(=O)[C@@H](N)[C@@H](C)O)C(C)C)[C@@H](C)O)[C@@H](C)O)C(=O)NCC(=O)N[C@@H](CCCCN)C(=O)N[C@@H](CCCCN)C(=O)N[C@@H](CCCCN)C(=O)N[C@@H](CCC(N)=O)C(=O)O [Flu.PB1.199]
Output: fulfilled
